Compiled literature Ki, tested on UniProt P34969.
Sequence (P34969 whole entry): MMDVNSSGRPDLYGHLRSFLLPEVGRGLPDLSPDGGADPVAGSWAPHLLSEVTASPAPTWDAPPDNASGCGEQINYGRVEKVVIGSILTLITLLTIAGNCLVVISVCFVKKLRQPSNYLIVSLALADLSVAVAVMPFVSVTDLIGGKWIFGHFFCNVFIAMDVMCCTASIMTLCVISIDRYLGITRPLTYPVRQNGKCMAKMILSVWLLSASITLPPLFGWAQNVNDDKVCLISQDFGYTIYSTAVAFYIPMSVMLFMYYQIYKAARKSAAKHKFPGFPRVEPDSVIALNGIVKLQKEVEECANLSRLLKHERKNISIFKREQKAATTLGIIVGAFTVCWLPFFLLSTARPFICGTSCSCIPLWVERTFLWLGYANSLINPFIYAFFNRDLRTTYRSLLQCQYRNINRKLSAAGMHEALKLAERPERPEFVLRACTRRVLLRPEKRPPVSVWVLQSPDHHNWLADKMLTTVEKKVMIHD

Below: 4 compounds and their reported Ki.
compound: Cn1ccc2cc3c(cc21)CCN3C(=O)Nc1cccnc1
test-target: UniProt P34969
test-value: 1 µM
//
compound: CC(C)=CCC[C@]1(C)[C@@H](CC=C(C)C)C[C@]2(CC=C(C)C)C(=O)C(CC=C(C)C)C(=O)[C@]1(C(=O)C(C)C)C2=O (stereo not given in full)
test-target: UniProt P34969
test-value: > 10 µM
//
compound: Clc1ccc(-c2n[nH]c3c2CCNCC3)cc1
test-target: UniProt P34969
test-value: 0.032 µM
//
compound: O=c1[nH]c2ccccc2n1CCN1CCCN2CCCCC2C1 (stereo not given)
test-target: UniProt P34969
test-value: 23.6 µM

Shift focus to the following entry.
Prompt: Assign Ki to the following record: N[C@H](CS(=O)(=O)O)C(=O)O
Completion: > 10 µM

---

Compiled literature pKi, tested on UniProt P34969.
Numbers only, as −log10 of the molar value.

molecule: CC1CCCN(CCCCC(=O)n2c3ccccc3c3ccccc32)C1 (centres undefined)
pKi: 6.10

Quick one: give me pKi for each item below, same order please.
1. Nc1c(Cl)cc(-c2nn(C3CCN(CCc4ccccc4)CC3)c(=O)o2)c2c1OCCO2
2. Cc1cc2c(cc1Cl)N(C(=O)Nc1ccc(Oc3cccnc3C)nc1)CC2

Completion:
1: 5.49; 2: 6.10
